Counter-ions that a name gives are not always drawn.
Below are MIC values recorded for A. baumannii (ARC3495).

{"columns": ["compound", "test_target", "MIC"],
 "data": [
  ["CN(C)/C(=N\\O)[C@@H]1c2c(cnn2C)[C@@H]2CN1C(=O)N2OS(=O)(=O)O [Example 2]", "A. baumannii (ARC3495)", "8 to 16 µg/mL"],
  ["CN/C(=N\\OC(=O)NCc1cn(C)[n+](C)c1)[C@@H]1c2c(cnn2C)[C@@H]2CN1C(=O)N2OS(=O)(=O)O [Example 54]", "A. baumannii (ARC3495)", "> 16 µg/mL"],
  ["CN/C(=N\\OC(C)(C)C(=O)O)[C@@H]1c2c(cnn2C)[C@@H]2CN1C(=O)N2OS(=O)(=O)O [Example 63]", "A. baumannii (ARC3495)", "> 16 µg/mL"],
  ["Cn1ncc2c1[C@@H](C1=NOC(Cc3ccccc3)C1)N1C[C@@H]2N(OS(=O)(=O)O)C1=O (mixture of isomers) [Example 36]", "A. baumannii (ARC3495)", "> 16 µg/mL"],
  ["CN(O)/C(=N\\O)[C@@H]1c2c(cnn2C)[C@@H]2CN1C(=O)N2OS(=O)(=O)O (racemic) [Example 9]", "A. baumannii (ARC3495)", "8 to 16 µg/mL"],
  ["CN/C(=N\\O)[C@@H]1c2c(cnn2C)[C@@H]2CN1C(=O)N2OS(=O)(=O)O (stereo in doubt) [Example 1, sulfate]", "A. baumannii (ARC3495)", "< 8 µg/mL"],
  ["CCN/C(=N\\O)[C@@H]1c2c(cnn2C)[C@@H]2CN1C(=O)N2OS(=O)(=O)O (racemic) [Example 5]", "A. baumannii (ARC3495)", "> 16 µg/mL"]
]}

###

Below are MIC values recorded for A. baumannii (ARC3495).

{"columns": ["compound", "MIC"],
 "data": [
  ["CN/C(=N\\OC(=O)NCCCC[C@H](N)C(=O)OC(C)(C)C)[C@@H]1c2c(cnn2C)[C@@H]2CN1C(=O)N2OS(=O)(=O)O (racemic) [Example 32]", "> 16 µg/mL"],
  ["CN/C(=N\\OC)[C@@H]1c2c(cnn2C)[C@@H]2CN1C(=O)N2OS(=O)(=O)O [Example 4]", "> 16 µg/mL"],
  ["CNC(=O)O/N=C(\\NC)[C@@H]1c2c(cnn2C)[C@@H]2CN1C(=O)N2OS(=O)(=O)O (racemic) [Example 20]", "8 to 16 µg/mL"],
  ["CN/C(=N\\OC(=O)NCc1cnn(C)c1)[C@@H]1c2c(cnn2C)[C@@H]2CN1C(=O)N2OS(=O)(=O)O (racemic) [Example 15]", "> 16 µg/mL"],
  ["Cn1ncc2c1[C@@H](c1noc(=O)n1Cc1nc(N)cs1)N1C[C@@H]2N(OS(=O)(=O)O)C1=O [Example 53]", "> 16 µg/mL"],
  ["CN/C(=N\\OC(=O)NCCN)[C@@H]1c2c(cnn2C)[C@@H]2CN1C(=O)N2OS(=O)(=O)O (racemic) [Example 18]", "8 to 16 µg/mL"],
  ["CN/C(=N\\OCCN)[C@@H]1c2c(cnn2C)[C@@H]2CN1C(=O)N2OS(=O)(=O)O (racemic) [Example 7]", "> 16 µg/mL"],
  ["CNC(=O)[C@@H]1c2c(cnn2C)[C@@H]2CN1C(=O)N2OS(=O)(=O)O [Comparator 2, reference compound]", "> 16 µg/mL"],
  ["Cn1ncc2c1[C@@H](c1noc(=O)n1C)N1C[C@@H]2N(OS(=O)(=O)O)C1=O [Example 66]", "> 16 µg/mL"],
  ["CN/C(=N\\OCC(=O)NOS(=O)(=O)O)[C@@H]1c2c(cnn2C)[C@@H]2CN1C(=O)N2OS(=O)(=O)O [Example 73]", "> 16 µg/mL"]
]}
